SYSTEM: the molecule itself
TEST: native gel or EMSA; 4–12% gradient native Tris-Glycine gel; samples kept and gel run at room temperature (20°C), 150 V, Coomassie blue stain
READOUT_TYPE: binding result

PROTEIN	RESULT
DmHsp27 F29A (natural protein, Drosophila melanogaster, UniProt P02518 1-213, looked up, DmHsp27 (Hsp27), Drosophila melanogaster, with F29A; source: E. coli BL21 (DE3) pLysS, purified (Ni-NTA, SEC on Superose 6)) MSIIPLLHLARELDHDYRTDWGHLLEDDAGFGVHAHDLFHPRRLLLPNTLGLGRRRYSPYERSHGHHNQMSRRASGGPNALLPAVGKDGFQVCMDVSQFKPNELTVKVVDNTVVVEGKHEEREDGHGMIQRHFVRKYTLPKGFDPNEVVSTVSSDGVLTLKAPPPPSKEQAKSERIVQIQQTGPAHLSVKAPAPEAGDGKAENGSGEKMETSK	binds
DmHsp27 S75D (natural protein, Drosophila melanogaster, UniProt P02518 1-213, looked up, DmHsp27 (Hsp27), Drosophila melanogaster, with S75D; also called phosphomimetic mutant; source: E. coli BL21 (DE3) pLysS, purified (Ni-NTA, SEC on Superose 6)) MSIIPLLHLARELDHDYRTDWGHLLEDDFGFGVHAHDLFHPRRLLLPNTLGLGRRRYSPYERSHGHHNQMSRRADGGPNALLPAVGKDGFQVCMDVSQFKPNELTVKVVDNTVVVEGKHEEREDGHGMIQRHFVRKYTLPKGFDPNEVVSTVSSDGVLTLKAPPPPSKEQAKSERIVQIQQTGPAHLSVKAPAPEAGDGKAENGSGEKMETSK	binds
DmHsp27 S58A (natural protein, Drosophila melanogaster, UniProt P02518 1-213, looked up, DmHsp27 (Hsp27), Drosophila melanogaster, with S58A; source: E. coli BL21 (DE3) pLysS, purified (Ni-NTA, SEC on Superose 6)) MSIIPLLHLARELDHDYRTDWGHLLEDDFGFGVHAHDLFHPRRLLLPNTLGLGRRRYAPYERSHGHHNQMSRRASGGPNALLPAVGKDGFQVCMDVSQFKPNELTVKVVDNTVVVEGKHEEREDGHGMIQRHFVRKYTLPKGFDPNEVVSTVSSDGVLTLKAPPPPSKEQAKSERIVQIQQTGPAHLSVKAPAPEAGDGKAENGSGEKMETSK	binds
DmHsp27 S58D (natural protein, Drosophila melanogaster, UniProt P02518 1-213, looked up, DmHsp27 (Hsp27), Drosophila melanogaster, with S58D; also called phosphomimetic mutant; source: E. coli BL21 (DE3) pLysS, purified (Ni-NTA, SEC on Superose 6)) MSIIPLLHLARELDHDYRTDWGHLLEDDFGFGVHAHDLFHPRRLLLPNTLGLGRRRYDPYERSHGHHNQMSRRASGGPNALLPAVGKDGFQVCMDVSQFKPNELTVKVVDNTVVVEGKHEEREDGHGMIQRHFVRKYTLPKGFDPNEVVSTVSSDGVLTLKAPPPPSKEQAKSERIVQIQQTGPAHLSVKAPAPEAGDGKAENGSGEKMETSK	binds
DmHsp27 with deletion of the FGFG motif (29-32) (del_FGFG) (natural protein, Drosophila melanogaster, UniProt P02518 1-213, looked up, DmHsp27 (Hsp27), Drosophila melanogaster, without the four residues F29 to G32 (FGFG); also called deletion FGFG (29–32); DmHsp27Del29-32; source: E. coli BL21 (DE3) pLysS, purified (Ni-NTA, SEC on Superose 6)) MSIIPLLHLARELDHDYRTDWGHLLEDDVHAHDLFHPRRLLLPNTLGLGRRRYSPYERSHGHHNQMSRRASGGPNALLPAVGKDGFQVCMDVSQFKPNELTVKVVDNTVVVEGKHEEREDGHGMIQRHFVRKYTLPKGFDPNEVVSTVSSDGVLTLKAPPPPSKEQAKSERIVQIQQTGPAHLSVKAPAPEAGDGKAENGSGEKMETSK	binds
DmHsp27 G30A (natural protein, Drosophila melanogaster, UniProt P02518 1-213, looked up, DmHsp27 (Hsp27), Drosophila melanogaster, with G30A; source: E. coli BL21 (DE3) pLysS, purified (Ni-NTA, SEC on Superose 6)) MSIIPLLHLARELDHDYRTDWGHLLEDDFAFGVHAHDLFHPRRLLLPNTLGLGRRRYSPYERSHGHHNQMSRRASGGPNALLPAVGKDGFQVCMDVSQFKPNELTVKVVDNTVVVEGKHEEREDGHGMIQRHFVRKYTLPKGFDPNEVVSTVSSDGVLTLKAPPPPSKEQAKSERIVQIQQTGPAHLSVKAPAPEAGDGKAENGSGEKMETSK	binds
DmHsp27 S58/75D (natural protein, Drosophila melanogaster, UniProt P02518 1-213, looked up, DmHsp27 (Hsp27), Drosophila melanogaster, with S58D and S75D; also called phosphomimetic mutant; source: E. coli BL21 (DE3) pLysS, purified (Ni-NTA, SEC on Superose 6)) MSIIPLLHLARELDHDYRTDWGHLLEDDFGFGVHAHDLFHPRRLLLPNTLGLGRRRYDPYERSHGHHNQMSRRADGGPNALLPAVGKDGFQVCMDVSQFKPNELTVKVVDNTVVVEGKHEEREDGHGMIQRHFVRKYTLPKGFDPNEVVSTVSSDGVLTLKAPPPPSKEQAKSERIVQIQQTGPAHLSVKAPAPEAGDGKAENGSGEKMETSK	binds

Consider the record given below.
[ask] Entry DmHsp27 F31Y (natural protein, Drosophila melanogaster, UniProt P02518 1-213, looked up, DmHsp27 (Hsp27), Drosophila melanogaster, with F31Y; source: E. coli BL21 (DE3) pLysS, purified (Ni-NTA, SEC on Superose 6)) MSIIPLLHLARELDHDYRTDWGHLLEDDFGYGVHAHDLFHPRRLLLPNTLGLGRRRYSPYERSHGHHNQMSRRASGGPNALLPAVGKDGFQVCMDVSQFKPNELTVKVVDNTVVVEGKHEEREDGHGMIQRHFVRKYTLPKGFDPNEVVSTVSSDGVLTLKAPPPPSKEQAKSERIVQIQQTGPAHLSVKAPAPEAGDGKAENGSGEKMETSK has what binding result?
[reply] binds
